Just for reference, the supplement of paper PMC9170038 is where these values come from.

Test system: MS2 coat protein
Assay: apparent KD of MS2 coat protein; higher = weaker reporter binding
Conditions: Eterna round: R107; input ligand: theophylline 2 mM
Is apparent KD of MS2 coat protein at least 30 nM? Then t. If not, f.

Observe how each entry below is paired with its result.
>  <recordSequence>
GGGCAAGAGGGAAGGAGCGUCAGCUGAGUAACAUGAGGAUCACCCAUGUAGCACAUAGUGUGACAGGUAGGUCGCCCUCUGCCCU [SS-ArgB6]

>  <measurementTarget>
MS2 coat protein

>  <assignedCategory>
f

$$$$
>  <recordSequence>
CUCUCAUGAACAUGAGGAUCACCCAUGUAACGAGGACCGGUACGGCCGCCACUCGAACGUGGAUACCAAUCGAGUGGGUGAGAGA [Tryp A Ex t5]

>  <measurementTarget>
MS2 coat protein

>  <assignedCategory>
f

$$$$
>  <recordSequence>
GAGACGUCGGGAAGGAGCGCAUCAAAACCACACAUGAGGAUCACCCAUGUAUAAAUAUGCAUGCAGGUAGGUCGCCCGGUGUCCA [SS-ArgB16]

>  <measurementTarget>
MS2 coat protein

>  <assignedCategory>
t

$$$$
>  <recordSequence>
ACCUGUACGAAAAGUGCAGGACACGAAUAACGAGGACCGGUACGGCCGCCACUCGGAAAAUAACCUGAGGAUCACCCUGGUCGUG [TrypAS 7 #AlternativeMS2 #Zipper #StaticStem]

>  <measurementTarget>
MS2 coat protein

>  <assignedCategory>
t

$$$$
>  <recordSequence>
AAACCAAGGGAUGGGUGCCUUGGUAGUGAUACCAGCCUGGAAACAGGCCCUUGGCAGCACAUGAGGAUCACCCAUGUGAAAUAAU [TheoAX 18#OpenEnded]

>  <measurementTarget>
MS2 coat protein

>  <assignedCategory>
t

$$$$

Prompt: Could you tell me if the measured apparent KD of MS2 coat protein of UGACGAUACCUGGAUACCAGCGACAUGAGGAUCACCCAUGUAUGAGGAUCAGCCAUGAUAUGCCCUUGGCAGCCACGAAAGUCUU [VUVMULLIN] reaches 30 nM or more?
Completion: t

Prompt: Would you mind doing UGAUGGAACGGAAGGAGCGUGUAAGAACAAGAACAUGAGGAUCACCCAUGUAUUAAUUUAACACAGGUAGGUCGCCGAGAUAUUG [11.E] as well?
Completion: f

Prompt: Now consider CGAAUGAAGCAAGAUACCAGUGUAGAUUUAGACAUGAGGAUCACCCAUGUGAGGCAUGAGCACCCUUGGCAGCUUAAGCAGAAAA [theeternabot_sameState_MS2_Theo_B_47] .
Completion: t
